Below, each entry is listed alongside its reported growth reduction.
tested on: Staphylococcus aureus Sa2 (MRSA, cystic fibrosis isolate); experiment: growth reduction vs untreated control (OD550); higher = stronger antibacterial activity; conditions: 0.1 mM; 24 h
Where a name gives a salt, the structure may show the parent alone.
readout_type: growth reduction (%)

molecule	readout_type	measurement
Cn1ncc(Cl)c1-c1cc(C(=O)N[C@H](CN)Cc2cccc(F)c2)sc1Cl [Afuresertib]	growth reduction	100
O=C(O)CNC(=O)c1nc(Cl)c2ccccc2c1O	growth reduction	100
Cc1ccc(C#Cc2ccc(S(=O)(=O)N[C@H](Cc3c[nH]c4ccccc34)C(=O)O)s2)cc1	growth reduction	98.4
C[C@@H](NCCCc1cccc(C(F)(F)F)c1)c1cccc2ccccc12 [Cinacalcet (hydrochloride)]	growth reduction	100
Nc1ccc(S(=O)(=O)Nc2cnc3c(Cl)cccc3n2)cc1 [Chloroquinoxaline sulfonamide]	growth reduction	91.6
C[C@@H]1CCc2ncc(F)cc2[C@H]2CCCN2c2ccn3ncc(c3n2)C(=O)N1 [Selitrectinib]	growth reduction	96.9
CCCCc1oc2ccc(NS(C)(=O)=O)cc2c1C(=O)c1ccc(OCCCN(CCCC)CCCC)cc1 [Dronedarone (Hydrochloride)]	growth reduction	92.6
Cc1cc(C2CCCCC2)n(O)c(=O)c1 [Ciclopirox]	growth reduction	99.3
O=C(O)c1ccc2nc(-c3cc(Cl)cc(Cl)c3)oc2c1 [Tafamidis]	growth reduction	99.5
COc1cc2ncnc(Nc3ccc(F)c(Cl)c3)c2cc1NC(=O)/C=C/CN1CCCCC1 [Dacomitinib]	growth reduction	100
CC(C)(C)C(=O)Oc1ccc(S(=O)(=O)Nc2ccccc2C(=O)NCC(=O)O)cc1 [Sivelestat (sodium)]	growth reduction	92.9
Cc1cccc(/C=N/Nc2cc(N3CCOCC3)nc(OCCc3ccccn3)n2)c1 [Apilimod (mesylate)]	growth reduction	97.4
CCCCCCCCCCCC[N+](C)(C)CCOc1ccccc1 [Domiphen (bromide)]	growth reduction	100
CC(C)(C)NC(=O)N[C@H](C(=O)N1C[C@H]2[C@@H]([C@H]1C(=O)NC(CC1CCC1)C(=O)C(N)=O)C2(C)C)C(C)(C)C (stereo partly drawn) [Boceprevir]	growth reduction	91.4
CC1(C)CCC(C)(C)c2cc(NC(=O)c3ccc(C(=O)O)cc3)ccc21 [Tamibarotene]	growth reduction	95.5
Clc1ccc(CSC(Cn2ccnc2)c2ccc(Cl)cc2Cl)cc1 (stereo not drawn) [Sulconazole (mononitrate)]	growth reduction	100
CCCCc1nc(-c2ccc(OCCCN(CC)CC)cc2)cn1-c1ccc(Oc2ccc(Cl)cc2)cc1 [Azeliragon]	growth reduction	100
C=CC(=O)Nc1cccc(Oc2nc(Nc3ccc(N4CCN(C)CC4)c(F)c3)nc3[nH]ccc23)c1 [Avitinib (maleate)]	growth reduction	100
Fc1ccc(C(c2ccc(F)cc2)N2CCN(C/C=C/c3ccccc3)CC2)cc1 [Flunarizine (dihydrochloride)]	growth reduction	94.4
Clc1ccc(C(c2ccccc2Cl)C(Cl)Cl)cc1 (stereo not drawn) [Mitotane]	growth reduction	100
CC(C)(C)c1ccc(C(O)CCCN2CCC(C(O)(c3ccccc3)c3ccccc3)CC2)cc1 (stereo not drawn) [Terfenadine]	growth reduction	100
OCCN1CCN(CC/C=C2/c3ccccc3Sc3ccc(Cl)cc32)CC1 [Zuclopenthixol]	growth reduction	100
CC(=O)c1cc2c(o1)C(=O)c1ccccc1C2=O [Napabucasin]	growth reduction	100
CC(C)(C)c1cc(C(C)(C)C)c(NC(=O)c2c[nH]c3ccccc3c2=O)cc1O [Ivacaftor]	growth reduction	95.3
CSc1ccc2c(c1)N(CCC1CCCCN1C)c1ccccc1S2 (stereo not drawn) [Thioridazine (hydrochloride)]	growth reduction	100
O=C1Nc2ccc(Cl)cc2[C@@](C#CC2CC2)(C(F)(F)F)O1 [Efavirenz]	growth reduction	96.6
CCN1CCN(Cc2ccc(-c3cc4c(N[C@H](C)c5ccccc5)ncnc4[nH]3)cc2)CC1	growth reduction	100
COc1cc(C(=O)O)ccc1NC(=O)[C@@H]1N[C@@H](CC(C)(C)C)[C@](C#N)(c2ccc(Cl)cc2F)[C@H]1c1cccc(Cl)c1F [Idasanutlin]	growth reduction	100
OC1(c2ccc(Cl)c(C(F)(F)F)c2)CCN(CCCC(c2ccc(F)cc2)c2ccc(F)cc2)CC1 [Penfluridol]	growth reduction	100
CC(C)(O)c1ccccc1CC[C@@H](SCC1(CC(=O)O)CC1)c1cccc(/C=C/c2ccc3ccc(Cl)cc3n2)c1 [Montelukast (sodium)]	growth reduction	100
NC(=O)N1c2ccccc2C[C@H](O)c2ccccc21 [Eslicarbazepine]	growth reduction	92.7
CC(C)Nc1nc2cc(Cl)c(Cl)cc2n1[C@H]1O[C@@H](CO)[C@H](O)[C@@H]1O [Maribavir]	growth reduction	92.7
Cc1ccc(Sc2ccccc2N2CCNCC2)c(C)c1 [Vortioxetine]	growth reduction	100

* * *

test system: Staphylococcus aureus Sa2 (MRSA, cystic fibrosis isolate); assay: growth reduction vs untreated control (viable cell count); higher = stronger antibacterial activity; extreme values may be limits of the assay; conditions: 0.1 mM; 24 h
Structures can show the parent of a compound that is named as a salt.
readout_type: growth reduction (%)

compound	measurement
Cc1ccc([C@@H]2O[C@H](CO)[C@@H](O)[C@H](O)[C@H]2O)cc1Cc1ccc(-c2ccc(F)cc2)s1	100
CCCCN(CCCC)CCC(O)c1cc2c(Cl)cc(Cl)cc2c2cc(C(F)(F)F)ccc12 (configuration not stated) [Halofantrine hydrochloride]	94
Cc1cc(OCCCS(C)(=O)=O)cc(C)c1-c1cccc(COc2ccc3c(c2)OC[C@H]3CC(=O)O)c1	100
C[C@H]1CNCCCN1S(=O)(=O)c1cccc2cncc(F)c12	100
CN1C(=O)[C@@H](NC(=O)c2n[nH]c(Cc3ccccc3)n2)COc2ccccc21	90
Cc1ccc(NC(=O)c2ccc(CN3CCN(C)CC3)cc2)cc1Nc1nc(-c2cccnc2)cs1 [Masitinib (mesylate)]	100
CN[C@H]1CN(c2ccc3c(=O)c(C(=O)O)cn(-c4nccs4)c3n2)C[C@@H]1OC [Voreloxin (Hydrochloride)]	100

* * *

test system: Staphylococcus aureus Sa2 (MRSA, cystic fibrosis isolate); assay: growth reduction vs untreated control (OD550); higher = stronger antibacterial activity; conditions: 0.1 mM; 24 h
Structures can show the parent of a compound that is named as a salt.

compound	unit_name	growth reduction
CC(=O)OC[C@H]1O[C@@H]([S-])[C@H](OC(C)=O)[C@@H](OC(C)=O)[C@@H]1OC(C)=O.CCP(CC)CC.[Au+] [Auranofin]	%	99.9
Cc1nc2c([nH]1)-c1ccccc1N(C(=O)c1ccc(NC(=O)c3ccccc3-c3ccccc3)cc1)CC2 [Conivaptan (hydrochloride)]	%	90.4
CC(C)(C)[C@@H]1NC(=O)O[C@@H]2CCC[C@H]2OC/C=C/C(F)(F)c2nc3ccccc3nc2O[C@@H]2C[C@@H](C(=O)N[C@]3(C(=O)NS(=O)(=O)C4(C)CC4)C[C@H]3C(F)F)N(C2)C1=O [Glecaprevir]	%	100
COc1cccc(Nc2ncnn3ccc(CN4CC[C@@H](N)[C@H](O)C4)c23)c1	%	92.5
O=c1nc(OC[C@@H]2COCCO2)cc2n1CCc1cc(C#CC3CC3)ccc1-2	%	96.2
O=C(O)c1cc(-c2ccc(F)cc2F)ccc1O [Diflunisal]	%	93.6
O=c1[nH]cc(F)c(=O)[nH]1 [5-Fluorouracil]	%	97.1
CCCCCCCCCCCCN1CCCCCC1=O [Laurocapram]	%	100

* * *

tested on: Staphylococcus aureus Sa2 (MRSA, cystic fibrosis isolate); test: growth reduction vs untreated control (viable cell count); higher = stronger antibacterial activity; extreme values may be limits of the assay; details: 0.1 mM; 24 h
readout_type: growth reduction (%)

compound	measurement
Clc1ccc(CO/N=C(\Cn2ccnc2)c2ccc(Cl)cc2Cl)c(Cl)c1 [Oxiconazole nitrate]	100
CC(=O)O[C@]1(C(C)=O)CC[C@H]2[C@@H]3C=C(C)C4=CC(=O)CC[C@]4(C)[C@H]3CC[C@@]21C [Megestrol acetate]	91
Oc1c(I)cc(Cl)c2cccnc12	100
O=C(O)c1cc(F)c2nc(N3[C@@H]4CC[C@H]3C[C@@H](OCc3c(-c5ccccc5OC(F)(F)F)noc3C3CC3)C4)sc2c1 [Tropifexor]	100
CC/C(=C(\c1ccccc1)c1ccc(OCCN(C)C)cc1)c1ccccc1	100
N#CC(c1ccc(Cl)cc1)c1c(Cl)cc(-n2ncc(=O)[nH]c2=O)cc1Cl (stereo not given)	100
CCCCCc1ccc(C=CC(=O)Nc2ccccc2C(=O)O)cc1	100
CC(C)(C)CC(C)(C)c1ccc(OCCOCC[N+](C)(C)Cc2ccccc2)cc1 [Benzethonium chloride]	100
O=C(NC1CCN(CCCCC2(C(=O)NCC(F)(F)F)c3ccccc3-c3ccccc32)CC1)c1ccccc1-c1ccc(C(F)(F)F)cc1 [Lomitapide]	100
CC(C)(C)Cn1c(N)nc2ccc(-c3[nH]c(C(C)(C)C)nc3-c3ccc(F)cc3)nc21 [Ralimetinib dimesylate]	97
COc1cccc2c1c(O)c(C(=O)N(C)c1ccc(C(F)(F)F)cc1)c(=O)n2C	98
COC(=O)N[C@H](C(=O)N1CCC[C@H]1c1nc(-c2ccc3c(c2)O[C@@H](c2ccccc2)n2c-3cc3cc(-c4c[nH]c([C@@H]5CCCN5C(=O)[C@@H](NC(=O)OC)C(C)C)n4)ccc32)c[nH]1)C(C)C	100
O=c1[nH]c(=O)n([C@H]2C[C@H](O)[C@@H](CO)O2)cc1F	100
Cc1ccc(C(=O)N(CCCN)[C@@H](c2oc3cc(Cl)ccc3c(=O)c2Cc2ccccc2)C(C)C)cc1	100
COc1cccc(Nc2ncnn3ccc(CN4CC[C@@H](N)[C@H](O)C4)c23)c1	94

Recorded values, source the supplement of paper PMC12024424.
